Tested on: CEM cells HIV-1 protection, formazan growth assay
Assay: NCI AIDS Antiviral Assay
Details: measured here: growth of uninfected CEM cells
Assignment: determine reported IC50 for the given compounds.

### Prompt Retrieve IC50 on CEM cells HIV-1 protection, formazan growth assay; query CCOC(=O)/C(C#N)=C/c1ccccc1OC
### Response > 112 µM

### Prompt Retrieve IC50 on CEM cells HIV-1 protection, formazan growth assay; query CC(C)C(=Nc1ccc(Cl)c(Cl)c1)N(C)C
### Response > 100 µM

### Prompt Retrieve IC50 on CEM cells HIV-1 protection, formazan growth assay; query CC1(C)O[C@H]2OC(CO)C(OS(C)(=O)=O)[C@H]2O1 (stereo partly specified)
### Response > 200 µM

### Prompt Retrieve IC50 on CEM cells HIV-1 protection, formazan growth assay; query NC(CSSCC(NC(=O)OCc1ccccc1)C(=O)O)C(=O)O (stereo unspecified)
### Response > 200 µM

### Prompt Retrieve IC50 on CEM cells HIV-1 protection, formazan growth assay; query [N-]=[N+]=C1C(=O)NC(=O)N2C3CC(O)C(COC12)O3 (stereo unspecified)
### Response > 200 µM

### Prompt Retrieve IC50 on CEM cells HIV-1 protection, formazan growth assay; query CCOC(=O)c1c(SCc2ccccc2)nc2c3ccccc3ccn12
### Response > 151 µM
